This collection of values is drawn from patent US20250011368A1.

measured-target: T1, Biotinylated human DLL3 (Delta Like Canonical Notch Ligand 3) (human, UniProt Q9NYJ7 27-492, limits assumed, biotinylated (site not stated))
T1 construct: also called Delta-like protein 3; biotinylated target ligand human DLL3
T1 sequence: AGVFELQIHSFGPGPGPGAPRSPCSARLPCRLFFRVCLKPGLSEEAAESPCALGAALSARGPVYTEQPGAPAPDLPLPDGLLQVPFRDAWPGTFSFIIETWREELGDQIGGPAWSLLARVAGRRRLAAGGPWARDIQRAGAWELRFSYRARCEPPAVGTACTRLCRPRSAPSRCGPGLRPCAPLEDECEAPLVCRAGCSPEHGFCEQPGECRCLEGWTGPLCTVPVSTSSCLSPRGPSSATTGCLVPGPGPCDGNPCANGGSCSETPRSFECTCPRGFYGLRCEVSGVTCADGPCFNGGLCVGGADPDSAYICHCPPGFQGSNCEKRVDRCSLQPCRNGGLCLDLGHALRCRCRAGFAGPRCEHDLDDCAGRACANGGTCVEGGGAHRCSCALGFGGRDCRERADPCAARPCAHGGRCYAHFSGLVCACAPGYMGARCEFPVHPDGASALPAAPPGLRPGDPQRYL
assay-details: SPR; letter grade, key in paragraph 614
Experimental: Biotinylated target ligand human DLL3 was immobilized on a streptavidin sensor chip. A reference surface was set up for nonspecific binding and refractive index changes. For analysis of the kinetics of interactions, varying concentrations of samples were injected at a flow rate of 100 μL/minute using running buffer containing 20 mM phosphate buffer with 2.7 mM KCl, 137 mM NaCl, 0.05% Surfactant P20 and 2% DMSO. […]
Bridge positions count the residues as written; N and C are the ends. Square brackets hold non-standard residues; d marks the D form. * marks the point of attachment. DOTA = O=C(O)CN1CCN(CC(=O)O)CCN(CC(=O)*)CCN(CC(=O)O)CC1; 2Nal = N[C@@H](Cc1ccc2ccccc2c1)C(=O)O; 4Pal = N[C@@H](Cc1ccncc1)C(=O)O

- binder: "Ac-WTICNN[2Nal][4Pal]DCWP[dK](DOTA)-NH2 (disulfide 4-10; SMILES CC[C@H](C)[C@H](NC(=O)[C@@H](NC(=O)[C@H](Cc1c[nH]c2ccccc12)NC(C)=O)[C@@H](C)O)C(=O)N[C@H]1CSSC[C@@H](C(=O)N[C@@H](Cc2c[nH]c3ccccc23)C(=O)N2CCC[C@H]2C(=O)N[C@H](CCCCNC(=O)CN2CCN(CC(=O)O)CCN(CC(=O)O)CCN(CC(=O)O)CC2)C(N)=O)NC(=O)[C@H](CC(=O)O)NC(=O)[C@H](Cc2ccncc2)NC(=O)[C@H](Cc2ccc3ccccc3c2)NC(=O)[C@H](CC(N)=O)NC(=O)[C@H](CC(N)=O)NC1=O) [Cpd No. 367]"
  Kd: "≤ 1 nM"
